Collected composite z-score values appear next to each entry.
Molecular target: Focal adhesion kinase 1 (Homo sapiens)
Test: small-molecule microarray binders of FAK, primary screen, biochemical, 635/667 nm fluorescence, BSA, DTT (AID 1130);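 further: composite of spot emission at 667 nm and signal to noise over triplicate slides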
Settings: PTK2 binding, 635 nm fluorescence, higher = more signal
The response must contain the number and no unit.

Here are 10 compounds together with their reported answers.
>>> endpoint_result("O=C(NCC(F)(F)F)[C@@H]1c2ccccc2C(=O)N(C2CCCCC2)[C@H]1c1ccc(CO)cc1")
-0.013
>>> endpoint_result("COCCCNC(=O)C1N=C(c2ccc(OCCCO)cc2)N(c2ccccc2)O1 (stereo unspecified)")
0.234
>>> endpoint_result("C=CCNC(=O)[C@H]1[C@@H]2C(=O)O[C@@H](c3ccccc3)[C@@H](c3ccccc3)N2[C@@H](c2ccc(OCCO)cc2)[C@]12C(=O)N(C(=O)OCCOC)c1ccccc12")
0.389
>>> endpoint_result("CCCCCC1=C2CNC(CCC)(C(=O)OC)C=C2C(C)C1=O (stereo unspecified)")
0.682
>>> endpoint_result("COc1cc(CO)cc(I)c1O[C@H]1C=C(C(=O)NCCO)C[C@@H](N(CCN2CCOCC2)C(=O)C2CCOC2)[C@@H]1O (stereo partly specified)")
-0.508
>>> endpoint_result("CC(=O)NCCCC[C@@H]1NC(=O)[C@@H]2C[C@H](C(=O)NCCCCN(C)C)[C@H](c3cccc(OCCO)c3)N2C1=O")
-0.208
>>> endpoint_result("COc1cc2c(cc1O)C(C1CC1)N(Cc1cc3c(cc1Br)OCO3)CC2 (stereo unspecified)")
-0.629
>>> endpoint_result("C=CCN(Cc1ccccc1)C(=O)C(c1cccs1)N(CCOCCO)C(=O)/C=C\\C(=O)O (stereo unspecified)")
-0.374
>>> endpoint_result("CCCC[C@@H]1C[C@H]1[C@@H](NC(=O)c1ccco1)c1ccc(C(=O)OC)cc1")
0.214
>>> endpoint_result("Cc1ccc(S[C@]2(C(=O)NCCN3CCOCC3)CC(=O)N(Cc3ccccc3)[C@@H]2c2ccc(CO)cc2I)cc1")
0.217

Value of measured composite z-score for the entry `C=CC[C@@]1(C(=O)NCc2ccccc2)N=C(c2ccc(OCCCO)cc2)O[C@@H]1c1ccccc1N=[N+]=[N-]` : 0.649

Sure, the documented composite z-score for `COC(=O)[C@@]1(Cc2ccc(F)cc2)[C@@H]2[C@@H](CC(=O)[C@H]2CC(=O)C(=O)N(C)C)CN1C(=O)c1ccccc1` is 0.138

Reported composite z-score for `COc1ccc(C#Cc2ccc3c(c2)[C@]2(C(=O)N3)[C@H](c3ccccc3OCCO)N3[C@H](c4ccccc4)[C@H](c4ccccc4)OC(=O)[C@H]3[C@@H]2C(=O)O)cc1` was 0.191

Documented composite z-score of CCCCC(O)C1C=CC2C(=O)N(c3ccccc3)C(=O)C2N1Nc1ccccc1F (stereo unspecified) : 0.527

So, `C[N+](C)(C)CCCC[C@@H]1NC(=O)[C@@H]2C[C@H](C(=O)NCCCCCN)[C@H](c3cccc(OCCO)c3)N2C1=O` ? Its composite z-score was 0.103

Lab note: `CC(=O)N1Cc2ccccc2C[C@@]2(COC(c3ccc(OCCCO)cc3)=N2)C1=O` gave composite z-score of 0.994
